The reported numbers originate from ChEMBL document CHEMBL5104132.

Consider the following compounds and their measured Activity readings.
- Test system: dsDNA
- assay_procedure: Displacement of thiazole orange from human 1BNA double stranded DNA at 100 equiv. at pH 7.4 by fluorescent intercalator displacement assay
- Type: nucleic-acid assay
assay_readout: Activity (%)

>>> recorded_measurement("O=C(O)C1=CO[C@@H](O[C@@H]2O[C@H](CO)[C@@H](O)[C@H](O)[C@H]2O)[C@@H]2C(CO)=CC[C@H]12")
9.6
>>> recorded_measurement("OC[C@H]1O[C@@H](O[C@@H]2[C@@H](CO)O[C@](O)(CO)[C@H]2O)[C@H](O)[C@@H](O)[C@H]1O")
9
>>> recorded_measurement("O=c1c(-c2ccc(O)cc2)coc2cc(O[C@@H]3O[C@H](CO)[C@@H](O)[C@H](O)[C@H]3O)ccc12")
10.9
>>> recorded_measurement("COC(=O)C1=CO[C@@H](O[C@@H]2O[C@H](CO)[C@@H](O)[C@H](O)[C@H]2O)[C@@H]2C(CO)=CC[C@H]12")
11.2
>>> recorded_measurement("O=C(O)[C@H]1O[C@@H](Oc2cc3oc(-c4ccccc4)cc(=O)c3c(O)c2O)[C@H](O)[C@@H](O)[C@@H]1O")
25.3
>>> recorded_measurement("O=c1c(-c2ccc(O)cc2)coc2cc(O[C@@H]3O[C@H](CO)[C@@H](O)[C@H](O)[C@H]3O)cc(O)c12")
14.5
